Tested on: Staphylococcus epidermidis
Test: Antibacterial activity against methicillin-resistant, constitutive MLS-resistant Staphylococcus epidermidis E 2 by broth microdilution method
Assay type: functional

query.smiles: CC[C@H]1OC(=O)[C@H](C)C(=O)[C@H](C)[C@@H](O[C@@H]2O[C@H](C)C[C@H](N(C)C)[C@H]2O)[C@](C)(OC)C[C@@H](C)/C(=N\OCCCc2cncc3ccccc23)[C@H](C)[C@H]2OC(=O)O[C@@]21C
unit.name: µg/mL
readout.qualifier: >
MIC: 256

query.smiles: CC[C@H]1OC(=O)[C@H](C)C(=O)[C@H](C)[C@@H](O[C@@H]2O[C@H](C)C[C@H](N(C)C)[C@H]2O)[C@](C)(OC)C[C@@H](C)/C(=N\OCC#Cc2ccc(-c3ccccn3)s2)[C@H](C)[C@H]2OC(=O)O[C@@]21C
unit.name: µg/mL
readout.qualifier: =
MIC: 128

query.smiles: CC[C@H]1OC(=O)[C@H](C)C(=O)[C@H](C)[C@@H](O[C@@H]2O[C@H](C)C[C@H](N(C)C)[C@H]2O)[C@](C)(OC)C[C@@H](C)/C(=N\OCC#Cc2cnc3ccccc3c2)[C@H](C)[C@H]2OC(=O)O[C@@]21C
unit.name: µg/mL
readout.qualifier: >
MIC: 256

query.smiles: CC[C@H]1OC(=O)[C@H](C)C(=O)[C@H](C)[C@@H](O[C@@H]2O[C@H](C)C[C@H](N(C)C)[C@H]2O)[C@](C)(OC)C[C@@H](C)/C(=N\OCC#Cc2ccc3ncccc3c2)[C@H](C)[C@H]2OC(=O)O[C@@]21C
unit.name: µg/mL
readout.qualifier: >
MIC: 256

query.smiles: CC[C@H]1OC(=O)[C@H](C)C(=O)[C@H](C)[C@@H](O[C@@H]2O[C@H](C)C[C@H](N(C)C)[C@H]2O)[C@](C)(OC)C[C@@H](C)/C(=N\OCC#Cc2cccnc2)[C@H](C)[C@H]2OC(=O)O[C@@]21C
unit.name: µg/mL
readout.qualifier: =
MIC: 256

###

System: Streptococcus pyogenes
Experiment: Antibacterial activity against constitutive MLS-resistant Streptococcus pyogenes A2 by broth microdilution method
Type: functional

query.smiles: CC[C@H]1OC(=O)[C@H](C)[C@@H](O[C@H]2C[C@@](C)(OC)[C@@H](O)[C@H](C)O2)[C@H](C)[C@@H](O[C@@H]2O[C@H](C)C[C@H](N(C)C)[C@H]2O)[C@](C)(O)C[C@@H](C)CN(C)[C@H](C)[C@@H](O)[C@]1(C)O
tgt: Streptococcus pyogenes
readout.qualifier: >
MIC / µg/mL: 256
//
query.smiles: CC[C@H]1OC(=O)[C@H](C)C(=O)[C@H](C)[C@@H](O[C@@H]2O[C@H](C)C[C@H](N(C)C)[C@H]2O)[C@](C)(OC)C[C@@H](C)/C(=N\OCC#Cc2cccs2)[C@H](C)[C@H]2OC(=O)O[C@@]21C
tgt: Streptococcus pyogenes
readout.qualifier: =
MIC / µg/mL: 32
//
query.smiles: CC[C@H]1OC(=O)[C@H](C)C(=O)[C@H](C)[C@@H](O[C@@H]2O[C@H](C)C[C@H](N(C)C)[C@H]2O)[C@](C)(OC)C[C@@H](C)/C(=N\OCC#Cc2cccnc2)[C@H](C)[C@H]2OC(=O)O[C@@]21C
tgt: Streptococcus pyogenes
readout.qualifier: =
MIC / µg/mL: 64
//
query.smiles: CC[C@H]1OC(=O)[C@H](C)C(=O)[C@H](C)[C@@H](O[C@@H]2O[C@H](C)C[C@H](N(C)C)[C@H]2O)[C@](C)(OC)C[C@@H](C)/C(=N\OCC#Cc2cnc3ccccc3c2)[C@H](C)[C@H]2OC(=O)O[C@@]21C
tgt: Streptococcus pyogenes
readout.qualifier: =
MIC / µg/mL: 64
//
query.smiles: CC[C@H]1OC(=O)[C@H](C)C(=O)[C@H](C)[C@@H](O[C@@H]2O[C@H](C)C[C@H](N(C)C)[C@H]2O)[C@](C)(OC)C[C@@H](C)/C(=N\OCC#Cc2ccc3ncccc3c2)[C@H](C)[C@H]2OC(=O)O[C@@]21C
tgt: Streptococcus pyogenes
readout.qualifier: =
MIC / µg/mL: 64
//
query.smiles: CC[C@H]1OC(=O)[C@H](C)C(=O)[C@H](C)[C@@H](O[C@@H]2O[C@H](C)C[C@H](N(C)C)[C@H]2O)[C@](C)(OC)C[C@@H](C)/C(=N\OCC#Cc2ccnc3ccccc23)[C@H](C)[C@H]2OC(=O)O[C@@]21C
tgt: Streptococcus pyogenes
readout.qualifier: =
MIC / µg/mL: 32
//
query.smiles: CC[C@H]1OC(=O)[C@H](C)[C@@H](O[C@H]2C[C@@](C)(OC)[C@@H](O)[C@H](C)O2)[C@H](C)[C@@H](O[C@@H]2O[C@H](C)C[C@H](N(C)C)[C@H]2O)[C@](C)(OC)C[C@@H](C)C(=O)[C@H](C)[C@@H](O)[C@]1(C)O
tgt: Streptococcus pyogenes
readout.qualifier: >
MIC / µg/mL: 256
//
query.smiles: CC[C@H]1OC(=O)[C@H](C)C(=O)[C@H](C)[C@@H](O[C@@H]2O[C@H](C)C[C@H](N(C)C)[C@H]2O)[C@](C)(OC)C[C@@H](C)/C(=N\OCCCc2cnc3ccccc3c2)[C@H](C)[C@H]2OC(=O)O[C@@]21C
tgt: Streptococcus pyogenes
readout.qualifier: =
MIC / µg/mL: 32
//
query.smiles: CC[C@H]1OC(=O)[C@H](C)C(=O)[C@H](C)[C@@H](O[C@@H]2O[C@H](C)C[C@H](N(C)C)[C@H]2O)[C@](C)(OC)C[C@@H](C)/C(=N\OCC#Cc2ccc3[nH]ccc3c2)[C@H](C)[C@H]2OC(=O)O[C@@]21C
tgt: Streptococcus pyogenes
readout.qualifier: =
MIC / µg/mL: 128
//
query.smiles: CC[C@H]1OC(=O)[C@H](C)C(=O)[C@H](C)[C@@H](O[C@@H]2O[C@H](C)C[C@H](N(C)C)[C@H]2O)[C@](C)(OC)C[C@@H](C)/C(=N\OCC#Cc2ccccn2)[C@H](C)[C@H]2OC(=O)O[C@@]21C
tgt: Streptococcus pyogenes
readout.qualifier: =
MIC / µg/mL: 128
//
query.smiles: CC[C@H]1OC(=O)[C@H](C)C(=O)[C@H](C)[C@@H](O[C@@H]2O[C@H](C)C[C@H](N(C)C)[C@H]2O)[C@](C)(OC)C[C@@H](C)/C(=N\OCCCc2cncc3ccccc23)[C@H](C)[C@H]2OC(=O)O[C@@]21C
tgt: Streptococcus pyogenes
readout.qualifier: =
MIC / µg/mL: 64
//
query.smiles: CC[C@H]1OC(=O)[C@H](C)C(=O)[C@H](C)[C@@H](O[C@@H]2O[C@H](C)C[C@H](N(C)C)[C@H]2O)[C@](C)(OC)C[C@@H](C)/C(=N\OCC#Cc2cccc3cnccc23)[C@H](C)[C@H]2OC(=O)O[C@@]21C
tgt: Streptococcus pyogenes
readout.qualifier: =
MIC / µg/mL: 32
//
query.smiles: CC[C@H]1OC(=O)[C@H](C)C(=O)[C@H](C)[C@@H](O[C@@H]2O[C@H](C)C[C@H](N(C)C)[C@H]2O)[C@](C)(OC)C[C@@H](C)/C(=N\OCC#Cc2ccc(C(=O)c3ccccc3)s2)[C@H](C)[C@H]2OC(=O)O[C@@]21C
tgt: Streptococcus pyogenes
readout.qualifier: =
MIC / µg/mL: 32
//
query.smiles: CC[C@H]1OC(=O)[C@H](C)C(=O)[C@H](C)[C@@H](O[C@@H]2O[C@H](C)C[C@H](N(C)C)[C@H]2O)[C@](C)(OC)C[C@@H](C)/C(=N\OCC#Cc2cncnc2)[C@H](C)[C@H]2OC(=O)O[C@@]21C
tgt: Streptococcus pyogenes
readout.qualifier: =
MIC / µg/mL: 128
//
query.smiles: CC[C@H]1OC(=O)[C@H](C)C(=O)[C@H](C)[C@@H](O[C@@H]2O[C@H](C)C[C@H](N(C)C)[C@H]2O)[C@](C)(OC)C[C@@H](C)/C(=N\OCC#Cc2ccc(-c3ccccn3)s2)[C@H](C)[C@H]2OC(=O)O[C@@]21C
tgt: Streptococcus pyogenes
readout.qualifier: =
MIC / µg/mL: 32
//
query.smiles: CC[C@H]1OC(=O)[C@H](C)C(=O)[C@H](C)[C@@H](O[C@@H]2O[C@H](C)C[C@H](N(C)C)[C@H]2O)[C@](C)(OC)C[C@@H](C)/C(=N\OCC#Cc2cncc3ccccc23)[C@H](C)[C@H]2OC(=O)O[C@@]21C
tgt: Streptococcus pyogenes
readout.qualifier: =
MIC / µg/mL: 16
//
query.smiles: CC[C@H]1OC(=O)[C@H](C)C(=O)[C@H](C)[C@@H](O[C@@H]2O[C@H](C)C[C@H](N(C)C)[C@H]2O)[C@](C)(OC)C[C@@H](C)/C(=N\OC/C=C/c2cnc3ccccc3c2)[C@H](C)[C@H]2OC(=O)O[C@@]21C
tgt: Streptococcus pyogenes
readout.qualifier: =
MIC / µg/mL: 32
